Value source: patent US12234227B2

# STUDY_SYSTEM: human H4 receptor (Homo sapiens)
# Construct: expressed in transfected cells; host or cells: HEKf cells transduced with baculovirus
# Sequence (Q9H3N8 whole entry): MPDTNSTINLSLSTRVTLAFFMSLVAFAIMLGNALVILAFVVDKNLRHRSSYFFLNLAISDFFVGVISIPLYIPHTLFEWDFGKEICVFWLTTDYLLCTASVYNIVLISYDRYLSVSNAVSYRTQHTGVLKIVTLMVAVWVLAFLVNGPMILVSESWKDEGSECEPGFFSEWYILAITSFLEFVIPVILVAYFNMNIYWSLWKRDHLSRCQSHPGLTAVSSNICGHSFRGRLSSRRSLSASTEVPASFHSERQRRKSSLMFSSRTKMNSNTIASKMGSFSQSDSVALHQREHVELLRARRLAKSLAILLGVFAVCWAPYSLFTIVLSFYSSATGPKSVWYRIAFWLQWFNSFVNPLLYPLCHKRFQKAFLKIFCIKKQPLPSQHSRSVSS
# ASSAY_PROTOCOL: H4 Antagonist Functional cAMP Gi Assay
# Format: cell-based
# STUDY_CONDITIONS: H4 antagonist activity, read-out: Human H4 CAMP fpKb (converted)
Structures can show the parent of a compound that is named as a salt.
PROPERTY_MEASURED: Kb (nM)
Value expressed in nM; do not type the unit.

MOLECULE	PROPERTY_MEASURED	REPORTED
CCn1cc(-c2cc(N3CC[C@@H](NC)C3)nc(N)n2)cn1 [Example 8-3, dihydrochloride]	Kb	39.8
CN[C@@H]1CCN(c2cc(-c3cn(C)nc3C)nc(N)n2)C1	Kb	12.6

Q: Which measured Kb belongs to CN[C@@H]1CCN(c2cc(-c3[nH]nc(C)c3Cl)nc(N)n2)C1 , tested on human H4 receptor (Homo sapiens)?
Ans: 0.251

----------
# STUDY_SYSTEM: human H4 receptor (Homo sapiens)
# Construct: expressed in transfected cells; host or cells: HEKf cells transduced with baculovirus
# ASSAY_PROTOCOL: H4 Antagonist Functional Dynamic Mass Redistribution Assay
# Assay type: cell-based
# STUDY_CONDITIONS: H4 antagonist activity, read-out: Human H4 DMR fpKb (converted)
# Description: H4 Antagonist Functional Dynamic Mass Redistribution Assay HEKf cells were infected using baculovirus expressing the human H4 receptor, plated into fibronectin-coated EPIC plates at a density of 10,000 cells/well and incubated overnight at 37° C. […] Following 2 h equilibration at room temperature, 30 nL of H4 ligands prepared in DMSO were stamped by LabCyte ECHO acoustic dispensing into seeded EPIC plates and cellular dynamic mass redistribution was monitored using a Corning EPIC plate reader. […]
Structures can show the parent of a compound that is named as a salt.
PROPERTY_MEASURED: Kb

Observe how each entry below is paired with its result.
COMPOUND	Kb
CCc1n[nH]c(-c2cc(N3CC[C@@H](NC)C3)nc(N)n2)c1F [Example 17-13]	50.1 nM
Cc1n[nH]c(-c2cc(N3C[C@H]4CCCN[C@H]4C3)nc(N)n2)c1Cl [Example 17-7, dihydrochloride]	31.6 nM

Q: So what's the measured Kb for this one? CN[C@@H]1CCN(c2cc(-c3[nH]ncc3SC)nc(N)n2)C1 [Example 16-14]
Ans: 25.1 nM

Q: What measured Kb goes with CN[C@@H]1CCN(c2cc(-c3cnn(C)c3C)nc(N)n2)C1 [Example 12-1] ?
Ans: 2.51 nM

Q: Suppose we examine the compound CN[C@@H]1CCN(c2cc(-c3[nH]nc(C)c3OC)nc(N)n2)C1 [Example 17-9] ; what Kb value has been reported?
Ans: 3.98 nM

Q: Would you mind telling me what Kb value was observed for CCc1nn(C)cc1-c1cc(N2CC[C@@H](NC)C2)nc(N)n1 [Example 11-2, dihydrochloride] ?
Ans: 79.4 nM

Q: Consider the compound CN[C@@H]1CCN(c2cc(-c3cn(C)nc3C)nc(N)n2)C1 [Example 11-1] and give its measured Kb.
Ans: 2.51 nM

----------
# STUDY_SYSTEM: UniProtKB Q12809
# Sequence (Q12809 whole entry): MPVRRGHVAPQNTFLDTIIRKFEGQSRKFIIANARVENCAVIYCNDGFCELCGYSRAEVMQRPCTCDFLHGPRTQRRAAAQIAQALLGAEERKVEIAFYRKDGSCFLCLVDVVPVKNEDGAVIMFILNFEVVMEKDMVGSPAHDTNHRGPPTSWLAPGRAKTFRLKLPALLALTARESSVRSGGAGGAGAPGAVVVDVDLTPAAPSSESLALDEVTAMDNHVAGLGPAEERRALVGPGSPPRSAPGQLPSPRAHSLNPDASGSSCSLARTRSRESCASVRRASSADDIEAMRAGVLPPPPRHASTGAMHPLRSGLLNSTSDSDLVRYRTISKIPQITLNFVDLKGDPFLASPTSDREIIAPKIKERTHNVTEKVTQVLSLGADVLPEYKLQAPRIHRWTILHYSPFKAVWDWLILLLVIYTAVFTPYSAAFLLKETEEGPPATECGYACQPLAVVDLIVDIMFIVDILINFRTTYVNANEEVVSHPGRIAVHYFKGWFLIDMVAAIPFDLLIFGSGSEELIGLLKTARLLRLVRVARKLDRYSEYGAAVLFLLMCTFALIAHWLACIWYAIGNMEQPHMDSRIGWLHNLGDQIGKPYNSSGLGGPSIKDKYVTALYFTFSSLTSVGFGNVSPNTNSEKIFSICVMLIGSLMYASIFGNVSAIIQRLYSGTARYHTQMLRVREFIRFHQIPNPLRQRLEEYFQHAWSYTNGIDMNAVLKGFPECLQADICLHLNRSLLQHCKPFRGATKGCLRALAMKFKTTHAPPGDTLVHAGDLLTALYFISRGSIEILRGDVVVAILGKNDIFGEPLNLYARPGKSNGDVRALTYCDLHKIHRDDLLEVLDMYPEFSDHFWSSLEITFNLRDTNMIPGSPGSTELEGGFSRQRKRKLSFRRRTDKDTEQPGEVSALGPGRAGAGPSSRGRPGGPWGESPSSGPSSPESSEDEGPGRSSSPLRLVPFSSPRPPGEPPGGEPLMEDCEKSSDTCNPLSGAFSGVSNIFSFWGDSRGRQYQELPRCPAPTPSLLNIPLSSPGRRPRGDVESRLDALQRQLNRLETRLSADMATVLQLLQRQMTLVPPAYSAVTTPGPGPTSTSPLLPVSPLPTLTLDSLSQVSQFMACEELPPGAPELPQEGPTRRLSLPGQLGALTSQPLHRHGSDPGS
# ASSAY_PROTOCOL: hERG Assay (QPatch automated patch clamp; single-concentration assay at 30 μM and pIC50 assay)
# STUDY_CONDITIONS: human, CHO cells stably expressing hERG
Counter-ions that a name gives are not always drawn.
PROPERTY_MEASURED: inhibition at 30 µM (%)
Give the quantity in %, number only.

COMPOUND	UNIT_ANNOTATION	REPORTED
CN[C@H]1CCN(c2cc(-c3[nH]nc(C)c3Cl)nc(N)n2)C1 [Example 17-4, dihydrochloride]	%	39
CN[C@@H]1CCN(c2cc(-c3[nH]nc(C)c3C(F)(F)F)nc(N)n2)C1	%	39

Consider the record given below.
Q: Looking for the measured inhibition at 30 µM of CN[C@@H]1CCN(c2cc(-c3[nH]nc(C)c3Cl)nc(N)n2)C1 , can you help?
Ans: 39
